Reported values of T/C for individual entries
# Test system: L1210 leukemia ip in BDF1 mice, survival T/C
# testDetails: NCI In Vivo Anticancer Drug Screen. Data for tumor model L1210 Leukemia (intraperitoneal) in B6D2F1 (BDF1) mice
# conditionLabel: endpoint: mean survival time; dose: 400.0 mg/kg/injection; schedule: Q01DX001 (ip); vehicle: saline; higher = longer survival
Inconclusive results and toxic doses are left out.
measuredAttribute: T/C

- O=[N+]([O-])c1ccc(Cl)cc1C1OCCO1: 104 % of control
- Cc1ccc(C(OC(=O)c2ccccc2)c2nccc3ccccc23)cc1 (stereo not drawn): 98 % of control
- OC1/C=C\CCCCC1 (stereo not drawn): 98 % of control
- CC(SC1=NCCN1)C(=O)O (stereo not drawn): 98 % of control
- Cc1n(-c2ccccc2)c2ccccc2[n+]1[O-]: 101 % of control
- CC(=O)CCCCC(C)=O: 104 % of control
- COc1cc(C)oc(=O)c1: 102 % of control
- O=C(OC1CCC/C=C\CCCC1)c1ccc(Cl)cc1 (stereo not drawn): 98 % of control
- CC1CC(C)OP(Oc2ccccc2)O1 (stereo not drawn): 98 % of control
- Cc1cccc(N2CCN(C(=S)c3ccccc3)CC2)c1: 98 % of control
- COc1ccc2c(c1)OC(OC)(c1ccccc1)C(O)(OC)C2=O (stereo not drawn): 98 % of control
- Cn1nnc(C(N)=O)n1: 94 % of control
- COC(=O)C1(C)COP(=O)(N2CC2C)OC1 (stereo not drawn): 97 % of control
- CC(=O)OCC1OC(n2cnc3c(N)ncnc32)C(OC(C)=O)C1OC(C)=O (stereo not drawn): 94 % of control
- O=C1C(c2ccccc2)=C2C(=C1c1ccccc1)c1cccc3cccc2c13: 120 % of control
- C1CC2CCCC3C4CCCC5CCCC(C(C1)C23)C54 (stereo not drawn): 97 % of control
- Cn1nc(C#N)c2c(N)ncnc21: 101 % of control
- OCC1OC(n2c(=S)[nH]c3ccccc32)C(O)C1O (stereo not drawn): 106 % of control
- CC(=O)C1Cc2ccccc2C1=O (stereo not drawn): 108 % of control
- CC(C)COC(=O)C(C)OC(=O)OCCOCCOC(=O)OC(C)C(=O)OCC(C)C (stereo not drawn): 100 % of control
- Clc1ccc2[nH]c(-c3ccccc3)c(-c3ccccc3)c2c1: 96 % of control
- CCOC(=O)C(CC(C(=O)OCC)C(=O)c1ccccc1)C(=O)c1ccccc1 (stereo not drawn): 97 % of control
- CCCCCCCCCCCC(=O)Nc1cc(C(C)C)ccc1C: 91 % of control
